system under test: KDM5B (Homo sapiens, UniProt Q9UGL1)
Construct: (a.a. 1-752)
Sequence (Q9UGL1 1-752): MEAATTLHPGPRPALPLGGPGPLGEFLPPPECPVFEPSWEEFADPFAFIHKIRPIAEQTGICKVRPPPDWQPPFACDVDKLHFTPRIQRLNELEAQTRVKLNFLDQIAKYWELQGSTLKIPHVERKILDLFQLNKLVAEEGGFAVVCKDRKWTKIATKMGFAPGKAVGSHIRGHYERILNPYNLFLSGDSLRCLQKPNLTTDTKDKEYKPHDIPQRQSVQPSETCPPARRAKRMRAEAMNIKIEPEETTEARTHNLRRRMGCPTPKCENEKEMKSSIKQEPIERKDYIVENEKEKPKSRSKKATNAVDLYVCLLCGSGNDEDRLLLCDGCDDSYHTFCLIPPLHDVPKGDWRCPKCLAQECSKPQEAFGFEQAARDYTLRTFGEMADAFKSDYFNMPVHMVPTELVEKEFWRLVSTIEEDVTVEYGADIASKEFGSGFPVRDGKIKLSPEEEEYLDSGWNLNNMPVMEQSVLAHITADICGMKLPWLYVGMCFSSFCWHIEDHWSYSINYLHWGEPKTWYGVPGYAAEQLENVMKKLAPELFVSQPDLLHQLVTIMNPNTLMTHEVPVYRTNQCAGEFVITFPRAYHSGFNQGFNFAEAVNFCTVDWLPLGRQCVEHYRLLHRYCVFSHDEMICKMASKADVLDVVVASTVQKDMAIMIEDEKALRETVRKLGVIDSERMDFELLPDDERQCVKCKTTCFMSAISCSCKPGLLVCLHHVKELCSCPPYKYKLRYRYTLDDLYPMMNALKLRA
experiment description: Histone lysine demethylase immunofluorescence assay, U2OS cells transfected with KDM5B
condition context: U2OS cells transfected with pCMVHA KDM5B; mark detected H3K4me2; 20 hours
pIC50: −log10 of the molar value.
Collected pIC50 values appear next to each entry.

CN(CC(=O)N1CCCCC1)Cc1cc(C=O)ccn1 :: < 5.60
CN(C)CCCCNCc1cc(/C=N\C2CC2)ccn1 :: > 6.60
CCN(CC)CCCCNCc1cc(CNC(=O)C(F)(F)F)ccn1 :: > 6.60
CCN(CCN(C)C)C(=O)CNCc1cc(CNC(=O)C(F)(F)F)ccn1 :: > 6.60
CN(C)CC1CCC(CNCc2cc(C=O)ccn2)CC1 (stereo not shown) :: > 6.60

Let us examine a further case.
[ask] Any idea what pIC50 was measured for "CC(C)C[C@H](NCc1cc(/C=N/CCO)ccn1)C(=O)N1CCCCC1" ?
[reply] < 5.60

----------
system under test: KDM4C (JMJD2C) (Homo sapiens)
Sequence (Q9H3R0 1-349): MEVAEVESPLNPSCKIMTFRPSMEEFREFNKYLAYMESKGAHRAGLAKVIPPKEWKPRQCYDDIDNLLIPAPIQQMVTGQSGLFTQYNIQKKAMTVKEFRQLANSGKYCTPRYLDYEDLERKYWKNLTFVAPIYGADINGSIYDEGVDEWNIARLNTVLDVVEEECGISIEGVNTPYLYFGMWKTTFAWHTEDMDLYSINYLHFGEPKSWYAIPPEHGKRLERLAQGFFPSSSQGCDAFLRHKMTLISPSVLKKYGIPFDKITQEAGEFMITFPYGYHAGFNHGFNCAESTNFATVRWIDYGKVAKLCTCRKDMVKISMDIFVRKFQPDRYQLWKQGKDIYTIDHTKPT
experiment description: Histone lysine demethylase AlphaLISA assay, KDM4C
Format: biochemical
condition context: read-out: KDM4C HDME Inhibition IC50
readout name: IC50

CN(C)C/C=C/CNCc1cc(/C=N/C2CC2)ccn1 :: < 250 nM

[ask] Could you share which IC50 value was measured for "CN(C)CCCCCNCc1cc(C=O)ccn1" ?
[reply] 250 to 2500 nM

[ask] Subsequent entry: "N#CCNCc1ccnc(CNCCCCN(Cc2ccccc2)C2CC2)c1"
[reply] > 2500 nM

[ask] Record: "CCN(CCN(C)C)C(=O)CNCc1cc(/C=N/CC2(CO)CC2)ccn1"
[reply] 250 to 2500 nM

[ask] Same for CC1CC1/N=C/c1ccnc(CNCC(=O)N(C)C)c1 (stereo not shown)
[reply] 250 to 2500 nM

[ask] Could you do the same for "CN(C)CCNCc1ccnc(CNCC(=O)N(C)C)c1" , please?
[reply] 250 to 2500 nM

[ask] Same thing, different molecule: "COCCNCc1ccnc(CNCCCN(C)Cc2ccccc2)c1"
[reply] > 2500 nM

[ask] And the next one, "CN(C)CCCCNCc1cc(/C=N\C2CC2)ccn1" ?
[reply] > 2500 nM

[ask] Follow-up item: "CN(CCCNCc1cc(/C=N/C2CC2)ccn1)Cc1ccccc1"
[reply] 250 to 2500 nM

[ask] Would you mind doing CCN(CCN(C)C)C(=O)CNCc1cc(/C=N/CC(CO)Cc2ccccc2)ccn1 (stereo not shown) as well?
[reply] 250 to 2500 nM
